Target: T1, 4H3446-AA
T1 chain: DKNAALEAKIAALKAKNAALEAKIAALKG
Assay: two-hybrid library CCmax;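 also: natural log of median RNA to DNA barcode read ratio; higher means stronger binding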
Conditions: mean of both orientations
value kind: interaction score

binder	value kind	result
DENAALEAEIAALEAEIAALKAENAALEG [4H1035-AA]	interaction score	-1.17
DKIAALKAENAALEAKNAALEAKIAALKG [4H2742-AA]	interaction score	-1.39
DEIAALKAKNAALKAKIAALEAKNAALKG [4H1000-AA]	interaction score	-1.24
DKIAALKAKNAALEAEIAALEAENAALKG [4H2948-AA]	interaction score	-0.524
